B1: KRT13 (parent)
chain: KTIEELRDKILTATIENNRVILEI

# Variants of: B1
# experiment description: protein stability index of a GFP-peptide fusion (GPS, HEK-293T) (PSI 1-6); higher = more stable;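 note: lentivirally expressed fusions sorted by FACS into six bins by GFP to DsRed ratio, PSI derived from sequencing read proportions per bin multiplied by bin number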
# protocol conditions: c terminus: a fixed tail appended
Give measured protein stability index for each item. Keep answers brief.
Give bare numbers.

KTIEELRDSILTATIENNRVILEI
1.99
KTIEEPRDKILTATIENNRVILEI
1.48
KTIEELRDKILYATIENNRVILEI
3.8
KTIEELRDVILTATIENNRVILEI
2.86
KTIEEHRDKILTATIENNRVILEI
3.32
KTIEELRDKILTATIENNRWILEI
3.15
KTIEELRDKIETATIENNRVILEI
1.92
KTIEEKRDKILTATIENNRVILEI
2.32
KTIEELRDKILTAGIENNRVILEI
4.63
KTIEELRDKILTATICNNRVILEI
2.33

Batch lookup, protein stability index per entry.
1. KTIEELRDKILTATIENNRVILPI
2. KTIEELFDKILTATIENNRVILEI
3. KTIEELRFKILTATIENNRVILEI
4. KTIEELMDKILTATIENNRVILEI
5. KTIEELRDKILTATIENNRVILEA
6. KTIEELRDKILTATIENNRVILEH
7. KTIEELRDKILTATIENNRVFLEI

1: 2.08; 2: 1.85; 3: 2.81; 4: 2.07; 5: 2.65; 6: 1.93; 7: 3.3

Look at each variant and report its protein stability index.
1. KTIEELRDKILTATIEKNRVILEI
2. KTIEELRDKILTATIENNRVMLEI
3. KTIEELRDKILTWTIENNRVILEI
4. KTIEELRDKILTATIENNRVILVI
5. KTIEELRDKILTATIENYRVILEI
6. KTIEELRDKILTATIENNRVILTI

1: 2.4; 2: 2.18; 3: 2.81; 4: 3.08; 5: 2.01; 6: 2.79

Data provenance: the supplement of paper PMC10567573
